System: HIV-1 gp120 / PG9 antibody interaction
run.description: binders of HIV-1 gp120 antibody PG9, primary screen, biochemical, TR-FRET (AID 624416)
particulars: TR-FRET gp120-PG9 antibody binding; at 6.7 µM; stronger effect = higher value
In all, about 360,000 compounds went through this assay and about 1,500 (0.42%) were called active. Shown is part of a subset that was picked to be rich in actives.
Measured inhibition by item
Kindly answer with a numeric value in %, unit omitted.

See these solved cases before continuing.
COc1ccccc1Cc1c(-c2ccc(F)cc2)nc2ccc(C)cn12; 1.73
Cc1nc(NC(=O)CCC(=O)O)sc1C(=O)N(C)C; 0.5
C=CCN=C1NC(c2ccccc2)C(C(=O)OC)=C(C)N1Cc1ccc(C(F)(F)F)cc1 (stereo not drawn); -0.19
O=C(Nc1ccn(Cc2ccccc2F)n1)c1ccc(COc2ccc(Cl)cc2Cl)o1; 1.3
COC(=O)c1ccc(NC(=S)Nc2cccc(C)n2)cc1; 17.4

Exercise: Record request: inhibition value, item N#Cc1ccccc1NC(=O)c1cccc(COc2ccc(Cl)cc2Cl)c1
Solution: 19.9

Exercise: Record request: inhibition value, item O=C(COC(=O)c1cc2c(s1)CCCC2)NCc1ccccc1Cl
Solution: -0.89

Exercise: Record request: inhibition value, item CCCCNC(=O)c1c[nH]c2ccc(S(=O)(=O)Nc3ccc(OCC)cc3)cc2c1=O
Solution: 2.91

Exercise: Record request: inhibition value, item OC(c1ccccc1)(c1ccccc1)C1CCN(CCCOc2ccc(-c3ccsc3)cc2)CC1
Solution: 1.88

Exercise: Record request: inhibition value, item COc1ccc(SSc2ccc(OC)cc2C(=O)O)c(C(=O)O)c1
Solution: -0.62

Exercise: Record request: inhibition value, item CC(=O)c1sc(NC(=O)CCCOc2ccccc2C)nc1C
Solution: 12
